test: yeast display, Sf9 membrane polyspecificity reagent, FACS + sequencing; frameworks hold sequencing errors
measured-metric: polyreactivity (PSR sort gate)

// below: answered sequences
{"sequence-code": "QVQLVESGGGLVQAGGSLRLSCAASGGTFRTYVMGWYRQAPGKERELVAAISVSGGRTYYADSVKGRFTISRDNAKTTVYLQMNSLKPEDTAVYYCAAYWHGFFKYWEMGYWGQGTQVTVSS", "reported": "high polyreactivity"}
{"sequence-code": "QVQLVESGGGLVQAGGSLRLSCAASGRIFDVYAKGWYRQAPGKERELFAAISKSDGRTYYADSVKGRFTISRDNAKNTVYLQMNSLKPEDTAVYYCNVRAYGARAGTKMYYWGQGTQVNVSS", "reported": "low polyreactivity"}
{"sequence-code": "QVQLVESGGGLVQAGGSLRLSSAASGRIFARYAMGWYIQAPGKERELVAAITVSGDNTYYADSVKGRFTISRDNAKNTVYLQMNSRKPEDSADYYCDVRAVLLFGFFEYDYWGHGTQVTVSS", "reported": "low polyreactivity"}
{"sequence-code": "QVQLVESGGGLVQAGGSLRLRCAASGSIFWRNAMGWYRQAPGKERELVAPISGNGGTTYYADSVKGRFTISRENAKNTVFLQMNSLKPEHTAVYYCPKVGKTYRTYEYWGQGTEVTVSS", "reported": "high polyreactivity"}

Enquiry: Reported polyreactivity (PSR sort gate), sequence "QVQLVESGGGLVQAGGSLRLSCAASGNIYSWYAMGWYRQAPGKERELVAVISRSGGSTYYADSVKGRFTISRDNAKNTVYLQMNSLKPEDTAVYYCAARAYRTPYSIQFDYWGQGTQVTVSS" : ____
Return: high polyreactivity
